Target sequence: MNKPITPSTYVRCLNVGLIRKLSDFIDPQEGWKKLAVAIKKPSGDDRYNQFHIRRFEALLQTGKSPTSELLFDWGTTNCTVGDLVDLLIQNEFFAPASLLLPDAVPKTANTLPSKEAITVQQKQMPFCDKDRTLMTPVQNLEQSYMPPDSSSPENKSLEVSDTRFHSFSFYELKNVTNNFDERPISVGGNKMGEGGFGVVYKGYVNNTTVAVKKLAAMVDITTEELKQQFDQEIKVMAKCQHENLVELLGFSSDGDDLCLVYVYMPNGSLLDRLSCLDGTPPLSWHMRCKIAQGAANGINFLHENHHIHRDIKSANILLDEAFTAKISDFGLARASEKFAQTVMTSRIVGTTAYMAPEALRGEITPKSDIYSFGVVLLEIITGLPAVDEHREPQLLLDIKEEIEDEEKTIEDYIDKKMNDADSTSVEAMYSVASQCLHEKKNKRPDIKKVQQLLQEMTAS
PARAMETER: IC50 (nM)

Sample answers from the record:
{"STRUCTURE": "COc1cc(N2CCOCC2)ccc1NC(=O)c1cccc(-c2ccn[nH]2)n1", "UNIT_TAG": "nM", "IC50": 20}
{"STRUCTURE": "COc1cc(N2CCN(C)CC2)ccc1NC(=O)c1cccc(-c2cnn(C)c2)n1", "UNIT_TAG": "nM", "IC50": 420}
{"STRUCTURE": "O=C(Nc1ccccc1Cl)c1cccc(-c2cc[nH]n2)n1", "UNIT_TAG": "nM", "IC50": 1600}
{"STRUCTURE": "O=C(Nc1ccccc1Cl)c1cccc(-c2cccnc2)n1", "UNIT_TAG": "nM", "IC50": 3400}

[1] O=C(Nc1ccccc1Cl)c1csc(-c2ccc[n+]([O-])c2)n1
[2] COc1cc(N2CCN(C)CC2)ccc1NC(=O)c1csc(-c2cccnc2)n1
[3] COc1ccc(NC(=O)c2csc(-c3cccnc3)n2)c(OC)c1
[4] COc1cc(N2CCOCC2)ccc1NC(=O)c1csc(-c2cccnc2)n1
Parameters: sort_field (IC50), sort_dir (desc). # the answer lists labels in the order requested
1, 3, 2, 4

[A] O=C(Nc1ccccc1Cl)c1cccc(-c2cn[nH]c2)n1
[B] O=C(Nc1ccc(N2CCCCC2)cc1)c1csc(-c2cccnc2)n1
# compare IC50 for A vs B ; return the one with the smaller value Pick one; state its label.
A

====

- TARGET_UNDER_TEST: Interleukin-1 receptor-associated kinase 4 (Homo sapiens)
pIC50: −log10 of the molar value.
PARAMETER: pIC50

[I] COc1ccc(NC(=O)c2csc(-c3cccnc3)n2)cc1
[II] Cn1cc(-c2cccc(C(=O)Nc3ccccc3Cl)n2)cn1
[III] COc1cccc(NC(=O)c2csc(-c3cccnc3)n2)c1
Re-order the entries listed above so their pIC50 values fall from first to last. # the answer lists labels in the order requested
II, I, III
(II: 6.15, I: 5.43, III: 5.05)

====

- TEST: Metabolic stability in human liver microsomes at 0.5 uM
- Format: ADME, Microsome
PARAMETER: microsomal CLint at 0.5 µM (µL/min/mg)

{"STRUCTURE": "COc1cccc(NC(=O)c2csc(-c3cccnc3)n2)c1", "microsomal CLint at 0.5 µM / µL/min/mg": 149}
{"STRUCTURE": "COc1cc(N2CCN(C)CC2)ccc1NC(=O)c1csc(-c2cccnc2)n1", "microsomal CLint at 0.5 µM / µL/min/mg": 14}
{"STRUCTURE": "COc1cc(N2CCOCC2)ccc1NC(=O)c1cccc(-c2ccn[nH]2)n1", "microsomal CLint at 0.5 µM / µL/min/mg": 14}
{"STRUCTURE": "O=C(Nc1ccccc1Cl)c1csc(-c2cccnc2)n1", "microsomal CLint at 0.5 µM / µL/min/mg": 185}
{"STRUCTURE": "COc1ccccc1NC(=O)c1csc(-c2cccnc2)n1", "microsomal CLint at 0.5 µM / µL/min/mg": 300}
{"STRUCTURE": "COc1cc(N2CCN(C)CC2)ccc1NC(=O)c1cccc(-c2cnn(C)c2)n1", "microsomal CLint at 0.5 µM / µL/min/mg": 5}
{"STRUCTURE": "O=C(Nc1ccccc1OC(F)F)c1csc(-c2cccnc2)n1", "microsomal CLint at 0.5 µM / µL/min/mg": 103}
{"STRUCTURE": "COc1cc(N2CCOCC2)ccc1NC(=O)c1csc(-c2cccnc2)n1", "microsomal CLint at 0.5 µM / µL/min/mg": 20}

[1] O=C(Nc1ccc(N2CCCCC2)cc1)c1csc(-c2cccnc2)n1
[2] Cc1cccc(NC(=O)c2csc(-c3cccnc3)n2)c1
# compare microsomal CLint at 0.5 µM for 1 vs 2 ; return the one with the smaller value Pick one; state its label.
1
(1: 40 µL/min/mg, 2: 197 µL/min/mg)

[1] COc1ccc(NC(=O)c2csc(-c3cccnc3)n2)c(OC)c1
[2] COc1ccc(NC(=O)c2csc(-c3cccnc3)n2)cc1
[3] O=C(Nc1ccccc1)c1csc(-c2cccnc2)n1
[4] CN1CCN(c2ccc(NC(=O)c3csc(-c4cccnc4)n3)cc2)CC1
Parameters: sort_field (microsomal CLint at 0.5 µM), sort_dir (desc). # the answer lists labels in the order requested
3, 1, 2, 4
(3: 209 µL/min/mg, 1: 111 µL/min/mg, 2: 62 µL/min/mg, 4: 24 µL/min/mg)

[a] O=C(Nc1ccc(N2CCOCC2)cc1)c1csc(-c2cccnc2)n1
[b] Cc1ccccc1NC(=O)c1csc(-c2cccnc2)n1
Recorded microsomal CLint at 0.5 µM values differ for a and b ; which one is higher? Pick one; state its label.
b
